Notes on Ki obtained with D(3) dopamine receptor (Homo sapiens, UniProt P35462).
Sequence (P35462 whole entry): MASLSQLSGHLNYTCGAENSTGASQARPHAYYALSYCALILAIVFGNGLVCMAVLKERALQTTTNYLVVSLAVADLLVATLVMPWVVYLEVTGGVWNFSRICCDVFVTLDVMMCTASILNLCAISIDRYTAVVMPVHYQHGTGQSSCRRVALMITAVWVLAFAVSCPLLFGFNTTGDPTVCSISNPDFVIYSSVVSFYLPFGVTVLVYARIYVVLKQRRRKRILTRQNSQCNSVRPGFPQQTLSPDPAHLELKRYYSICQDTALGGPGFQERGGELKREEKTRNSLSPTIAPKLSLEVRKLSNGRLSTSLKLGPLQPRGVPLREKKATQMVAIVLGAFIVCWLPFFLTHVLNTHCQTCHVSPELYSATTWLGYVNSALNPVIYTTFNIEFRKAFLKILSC
Assay Metric: Ki (nM)

Record Smiles | Scale Unit | Ki
Nc1nc2c(s1)CCN(CCCCN1CCN(c3ncccn3)CC1)CC2 | nM | 3800
Clc1cccc(N2CCN(CCCCN3CCc4ncsc4CC3)CC2)c1Cl | nM | 28.2

1: c1cnc(N2CCN(CCCCN3CCc4ncsc4CC3)CC2)nc1
2: COc1ccccc1N1CCN(CCCCN2CCc3ncsc3CC2)CC1
3: COc1ccccc1N1CCN(CCCCOc2ccc3sc(N)nc3c2)CC1
4: Nc1nc2c(s1)CCN(CCCCN1CCN(c3cccc(Cl)c3Cl)CC1)CC2
5: O=C(NCCCCN1CCc2ncsc2CC1)C12CC3CC(CC(C3)C1)C2
Output the entries ranked by Ki from maximum down to minimum. Labels, ranked as asked.
1, 5, 2, 4, 3

====

pKi: −log10 of the molar value.
Notes on pKi obtained with D(2) dopamine receptor (Homo sapiens).
Sequence (P14416 whole entry): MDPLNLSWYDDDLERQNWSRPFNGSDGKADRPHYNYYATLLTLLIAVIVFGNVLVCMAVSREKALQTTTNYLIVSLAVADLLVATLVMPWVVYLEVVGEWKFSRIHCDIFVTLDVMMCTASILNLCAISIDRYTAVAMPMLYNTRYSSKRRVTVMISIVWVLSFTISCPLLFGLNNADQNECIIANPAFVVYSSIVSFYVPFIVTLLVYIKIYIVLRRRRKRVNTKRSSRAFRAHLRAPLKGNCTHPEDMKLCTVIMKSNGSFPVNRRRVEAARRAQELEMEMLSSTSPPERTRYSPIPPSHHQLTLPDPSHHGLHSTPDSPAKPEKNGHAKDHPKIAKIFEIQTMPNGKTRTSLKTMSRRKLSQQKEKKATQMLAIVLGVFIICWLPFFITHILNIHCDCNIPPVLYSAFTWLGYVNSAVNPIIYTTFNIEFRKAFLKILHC
Assay Metric: pKi

Record Smiles | Target Under Test | Numeric Value
COc1ccccc1N1CCN(CCCCN2CCc3ncsc3CC2)CC1 | D(2) dopamine receptor (Homo sapiens) | 7.07

a: COc1ccccc1N1CCN(CCCCOc2ccc3sc(N)nc3c2)CC1
b: c1nc2c(s1)CCN(CCCCN1CCc3ncsc3CC1)CC2
c: c1cnc(N2CCN(CCCCN3CCc4ncsc4CC3)CC2)nc1
d: O=C(c1ccccc1)N1CCN(CCN2CCc3ncsc3CC2)CC1
Output the entries ranked by pKi from maximum down to minimum. Labels, ranked as asked.
a, c, b, d
(a: 8.55, c: 5.60, b: 5.20, d: 4.38)
